biological target: Src (Homo sapiens)
Sequence (P12931 whole entry): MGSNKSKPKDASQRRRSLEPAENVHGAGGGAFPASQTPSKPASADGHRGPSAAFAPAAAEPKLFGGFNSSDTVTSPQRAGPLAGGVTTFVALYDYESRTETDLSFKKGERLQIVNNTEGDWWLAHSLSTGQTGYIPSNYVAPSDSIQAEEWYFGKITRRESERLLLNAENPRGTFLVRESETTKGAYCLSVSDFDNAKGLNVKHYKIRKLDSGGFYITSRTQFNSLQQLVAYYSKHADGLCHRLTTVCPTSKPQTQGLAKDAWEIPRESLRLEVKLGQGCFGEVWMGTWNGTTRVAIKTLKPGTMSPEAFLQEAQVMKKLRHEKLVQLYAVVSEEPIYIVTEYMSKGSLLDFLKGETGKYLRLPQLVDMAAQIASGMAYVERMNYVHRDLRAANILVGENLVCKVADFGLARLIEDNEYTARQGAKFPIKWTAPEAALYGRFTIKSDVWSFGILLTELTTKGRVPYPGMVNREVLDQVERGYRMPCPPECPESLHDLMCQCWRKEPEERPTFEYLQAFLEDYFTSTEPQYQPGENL
// IC50 lookup, one value per entry

Use these answered entries as a reference point.
- COMPOUND: "COc1cc(Nc2nc3c(NCCCN4CCN(C)CC4)nccn3n2)cc(OC)c1 [Example C30]"
  RESULT: "3 to 50 µM"
- COMPOUND: "COc1cc(Nc2nc3c(Cl)nccn3n2)cc(OC)c1 [Example B2]"
  RESULT: "3 to 50 µM"

Query compound follows.
Fill in: Src (Homo sapiens) IC50 for COCCCNc1nccn2nc(Nc3cccc(C)c3)nc12 [Example C32] = 3 to 50 µM

----------
Here's a batch of compounds along with measured IC50 for KDR (Homo sapiens).

Summary for this compound, CN1CCN(CCCNc2nccn3nc(Nc4cccc(C(F)(F)F)c4)nc23)CC1 : IC50 is 3 to 50 µM
